system: p38-beta; construct: gene MAPK11; settings: concentration: 1 μM, replicates: in singlicate; n = 1

compound: Cc1nc(N(C)[C@H]2CN(C(=O)CC#N)CC[C@H]2C)c2cc[nH]c2n1
experimental target: p38-beta
%Inh (%): 1
--
compound: CN1C(=O)C(Nc2ccccc2)=C(c2ccccc2)C1=O
experimental target: p38-beta
%Inh (%): 10
--
compound: Cc1cccc(-c2nc(Nc3ccc4c(cnn4C)c3)c3ccccc3n2)n1
experimental target: p38-beta
%Inh (%): 7
--
compound: COc1cccc(C2=C(Nc3cccc(C(=O)O)c3)C(=O)NC2=O)c1
experimental target: p38-beta
%Inh (%): 11
--
compound: CCCNC(=O)Nc1ccc(Oc2ncnc3ccn(C)c23)cc1
experimental target: p38-beta
%Inh (%): 15
--
compound: Cc1cc(Nc2nc(-c3cccc(C)n3)nc3ccccc23)ccn1
experimental target: p38-beta
%Inh (%): 0
--
compound: COc1cc(Nc2nccc(N3CCC(NC(=O)C4COc5ccccc5O4)C3)n2)cc(OC)c1OC (stereo not drawn)
experimental target: p38-beta
%Inh (%): 0
--
compound: O=C(NCc1cccs1)c1cc(C(=O)c2c(Cl)cccc2Cl)c[nH]1
experimental target: p38-beta
%Inh (%): 9
--
compound: Cc1cccc(-c2cc(-c3c[nH]nc3-c3ccccn3)ccn2)c1
experimental target: p38-beta;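 also: KINOMEscan kinase panel screen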
%Inh (%): 0
